# System: T1, wildtype feline IL-31 protein (Feline_IL31_wildtype) (feline)
# T1 construct: Full length feline IL-31 with C-terminal His tag, secreted from ExpiCHO cells; also called fIL-31
# T1 chain: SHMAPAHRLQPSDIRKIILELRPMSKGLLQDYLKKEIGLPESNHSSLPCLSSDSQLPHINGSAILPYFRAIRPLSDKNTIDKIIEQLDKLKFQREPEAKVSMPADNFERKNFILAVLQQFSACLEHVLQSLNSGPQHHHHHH
# Assay name: SPR (Biacore), IL-31 on chip, 1:1 fit
Below is a list of entries, each paired with its recorded koff value.
Your answer is read as s⁻¹, so omit the unit and give the number.

| Binder | Value unit | Reported |
| --- | --- | --- |
| Feline 15H05 2.3 (antibody, V domains shown, Feline heavy and kappa constant regions) VH: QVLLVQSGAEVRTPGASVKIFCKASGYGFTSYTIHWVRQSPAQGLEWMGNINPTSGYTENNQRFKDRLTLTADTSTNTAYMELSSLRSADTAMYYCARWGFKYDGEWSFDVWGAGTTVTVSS VL: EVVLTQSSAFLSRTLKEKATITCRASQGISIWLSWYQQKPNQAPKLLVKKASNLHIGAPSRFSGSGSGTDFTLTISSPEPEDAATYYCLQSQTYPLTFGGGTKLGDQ | s⁻¹ | 0.000535 |

Lookup: Look at this binder and give its reported koff. Feline 15H05 3.3 (antibody, V domains shown, Feline heavy and kappa constant regions) VH: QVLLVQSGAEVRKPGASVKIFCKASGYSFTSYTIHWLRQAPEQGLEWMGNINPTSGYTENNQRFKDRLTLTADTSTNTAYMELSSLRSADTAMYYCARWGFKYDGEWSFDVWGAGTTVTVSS VL: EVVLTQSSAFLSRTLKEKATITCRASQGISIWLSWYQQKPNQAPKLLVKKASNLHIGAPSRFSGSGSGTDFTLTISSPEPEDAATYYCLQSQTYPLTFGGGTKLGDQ
Found: 0.000886

Lookup: Look at this binder and give its reported koff. Feline 15H05 1.1 FW1 (antibody, V domains shown) VH: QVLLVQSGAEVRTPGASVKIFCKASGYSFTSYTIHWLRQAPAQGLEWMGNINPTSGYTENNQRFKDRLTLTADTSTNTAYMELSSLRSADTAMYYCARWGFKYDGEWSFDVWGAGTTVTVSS VL: DIQMNQSPSSLSASLGDTITVTCRASQGISIWLSWYQQKPGKVPKLLIYKASNLHIGVPSRFSGSGSGTDFTLTISSLEPEDAATYYCLQSQTYPLTFGGGTKLEIK
Found: 0.00286
